# target: T1, His6-tagged ERK2 (Dictyostelium discoideum, UniProt Q54QB1 1-369)
# T1 sequence (looked up): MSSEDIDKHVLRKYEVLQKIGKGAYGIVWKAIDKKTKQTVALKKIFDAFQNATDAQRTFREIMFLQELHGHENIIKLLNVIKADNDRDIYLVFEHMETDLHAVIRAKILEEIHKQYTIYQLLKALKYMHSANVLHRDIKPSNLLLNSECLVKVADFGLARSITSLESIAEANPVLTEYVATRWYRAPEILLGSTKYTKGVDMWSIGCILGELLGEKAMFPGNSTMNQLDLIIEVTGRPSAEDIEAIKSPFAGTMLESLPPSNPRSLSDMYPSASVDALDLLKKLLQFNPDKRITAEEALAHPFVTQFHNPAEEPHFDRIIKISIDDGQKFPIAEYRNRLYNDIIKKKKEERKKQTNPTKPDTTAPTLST
# assay remarks: pull-down
Examples of binders with documented pull-down yield (percent of the cell extract) follow.
recorded endpoint: pull-down yield (percent of the cell extract)

INSERT INTO results (binder, result) VALUES
  ('Myc-tagged Gα4^R107E,R108E subunit (altered D-motif) (natural protein, Dictyostelium discoideum, UniProt P34042 1-345, looked up) MRFKCFGSEETEQSSKIDKSIETDRRKLRKDVKLLLLGPGESGKSTIFKQMKIIQEDGGYSVEELLEYRAFVYSNCISQMEALLTASAKLNIELEVENKQRAANVLEETIGNEPWLLLAADIKHLWEDKGIKETYAQKDKHFQLNDSAAYFFDNIDRYMREDFVPNEQDVLRCRVRTTGIQESEFTFDKIRLKIVDVGGQRSQRRKWIHCFDCVTAVIFVAAMSDYDQVLREDESVNRTRESLALFKEIVNCDYFKETPIVLFLNKKDLFKEKLKRVPLQSCFSDYTGPNKYKDAAMFIQSQYLAQGPSPRTIYTHATCAVDTENIKFVFRAVRQTILSQALEHF', '~9%'),
  ('Myc-tagged Gα4^(R107E, R108E, Q200L) subunit (natural protein, Dictyostelium discoideum, UniProt P34042 1-345, looked up) MRFKCFGSEETEQSSKIDKSIETDRRKLRKDVKLLLLGPGESGKSTIFKQMKIIQEDGGYSVEELLEYRAFVYSNCISQMEALLTASAKLNIELEVENKQRAANVLEETIGNEPWLLLAADIKHLWEDKGIKETYAQKDKHFQLNDSAAYFFDNIDRYMREDFVPNEQDVLRCRVRTTGIQESEFTFDKIRLKIVDVGGLRSQRRKWIHCFDCVTAVIFVAAMSDYDQVLREDESVNRTRESLALFKEIVNCDYFKETPIVLFLNKKDLFKEKLKRVPLQSCFSDYTGPNKYKDAAMFIQSQYLAQGPSPRTIYTHATCAVDTENIKFVFRAVRQTILSQALEHF', '~4%'),
  ('Myc-tagged constitutively active Gα4^Q200L subunit (natural protein, Dictyostelium discoideum, UniProt P34042 1-345, looked up) MRFKCFGSEETEQSSKIDKSIETDRRKLRKDVKLLLLGPGESGKSTIFKQMKIIQEDGGYSVEELLEYRAFVYSNCISQMEALLTASAKLNIELEVENKQRAANVLRRTIGNEPWLLLAADIKHLWEDKGIKETYAQKDKHFQLNDSAAYFFDNIDRYMREDFVPNEQDVLRCRVRTTGIQESEFTFDKIRLKIVDVGGLRSQRRKWIHCFDCVTAVIFVAAMSDYDQVLREDESVNRTRESLALFKEIVNCDYFKETPIVLFLNKKDLFKEKLKRVPLQSCFSDYTGPNKYKDAAMFIQSQYLAQGPSPRTIYTHATCAVDTENIKFVFRAVRQTILSQALEHF', '~9%'),
  ('Myc-tagged Gα4 subunit (wild type) (natural protein, Dictyostelium discoideum, UniProt P34042 1-345, looked up) MRFKCFGSEETEQSSKIDKSIETDRRKLRKDVKLLLLGPGESGKSTIFKQMKIIQEDGGYSVEELLEYRAFVYSNCISQMEALLTASAKLNIELEVENKQRAANVLRRTIGNEPWLLLAADIKHLWEDKGIKETYAQKDKHFQLNDSAAYFFDNIDRYMREDFVPNEQDVLRCRVRTTGIQESEFTFDKIRLKIVDVGGQRSQRRKWIHCFDCVTAVIFVAAMSDYDQVLREDESVNRTRESLALFKEIVNCDYFKETPIVLFLNKKDLFKEKLKRVPLQSCFSDYTGPNKYKDAAMFIQSQYLAQGPSPRTIYTHATCAVDTENIKFVFRAVRQTILSQALEHF', '~22%');

Where these numbers come from: paper PMC2783421
